Each entry below lists one item and its recorded relative viability value.
- System: NCI-H1792
- METHOD_SUMMARY: relative viability (nuclei count vs DMSO), 5 days (fraction); higher = more cells survive
- EXPERIMENTAL_CONTEXT: first compound 0.08 µM

MOLECULE	relative viability
CCCCCCCCCCCC1=C(O)C(=O)C=C(O)C1=O [Embelin] + CCNC(=O)c1noc(-c2cc(C(C)C)c(O)cc2O)c1-c1ccc(CN2CCOCC2)cc1 [Luminespib] (partner 0.01 µM)	0.363
CCCCCCCCCCCC1=C(O)C(=O)C=C(O)C1=O [Embelin] + Nc1ncn([C@H]2C[C@H](O)[C@@H](CO)O2)c(=O)n1 [Decitabine] (partner 2 µM)	0.603
CCCCCCCCCCCC1=C(O)C(=O)C=C(O)C1=O [Embelin] + O=C(c1cc(Cc2n[nH]c(=O)c3ccccc23)ccc1F)N1CCN(C(=O)C2CC2)CC1 [Olaparib] (partner 8 µM)	0.507
CCCCCCCCCCCC1=C(O)C(=O)C=C(O)C1=O [Embelin] + CS(=O)(=O)CCNCc1ccc(-c2ccc3ncnc(Nc4ccc(OCc5cccc(F)c5)c(Cl)c4)c3c2)o1 [Lapatinib] (partner 2 µM)	0.917
CCCCCCCCCCCC1=C(O)C(=O)C=C(O)C1=O [Embelin] + CC(=O)Nc1cccc(-n2c(=O)n(C3CC3)c(=O)c3c(Nc4ccc(I)cc4F)n(C)c(=O)c(C)c32)c1 [Trametinib] (partner 0.02 µM)	0.452

----------
- Test system: NCI-H596
- METHOD_SUMMARY: relative viability (nuclei count vs DMSO), 5 days (fraction); higher = more cells survive
- EXPERIMENTAL_CONTEXT: first compound 0.3162 µM
RECORDED_METRIC: relative viability

COMPOUND	RECORDED_METRIC	RECORDED_VALUE
CC(C)Oc1cc(Nc2nc(N[C@@H](C)c3ccc(F)cn3)ncc2Cl)n[nH]1 [AZ23] + CC1(C)CCC(c2ccc(Cl)cc2)=C(CN2CCN(c3ccc(C(=O)NS(=O)(=O)c4ccc(N[C@H](CCN5CCOCC5)CSc5ccccc5)c(S(=O)(=O)C(F)(F)F)c4)cc3)CC2)C1 [Navitoclax] (partner 0.5 µM)	relative viability	0.747
CC(C)Oc1cc(Nc2nc(N[C@@H](C)c3ccc(F)cn3)ncc2Cl)n[nH]1 [AZ23] + CS(=O)(=O)N1CCN(Cc2cc3nc(-c4cccc5[nH]ncc45)nc(N4CCOCC4)c3s2)CC1 [Pictilisib] (partner 1 µM)	relative viability	0.397

----------
- System: A549
- METHOD_SUMMARY: relative viability (nuclei count vs DMSO), 5 days (fraction); higher = more cells survive
- EXPERIMENTAL_CONTEXT: first compound 1.265 µM
Entries annotated with measured relative viability

MOLECULE	relative viability
Clc1ccc(Nc2nnc(Cc3ccncc3)c3ccccc23)cc1 [Vatalanib] + CS(=O)(=O)N1CCN(Cc2cc3nc(-c4cccc5[nH]ncc45)nc(N4CCOCC4)c3s2)CC1 [Pictilisib] (partner 1 µM)	0.52
Clc1ccc(Nc2nnc(Cc3ccncc3)c3ccccc23)cc1 [Vatalanib] + Cc1nc(NC(=O)N2CCC[C@H]2C(N)=O)sc1-c1ccnc(C(C)(C)C(F)(F)F)c1 [Alpelisib] (partner 2 µM)	0.694
Clc1ccc(Nc2nnc(Cc3ccncc3)c3ccccc23)cc1 [Vatalanib] + C[C@]1(O)C[C@@H](c2nc(-c3ccc4ccc(-c5ccccc5)nc4c3)c3c(N)nccn32)C1 [Linsitinib] (partner 1 µM)	0.656
COc1cc(N2CCC(C(N)=O)CC2)ccc1Nc1nc(N)c(Cl)c(Nc2ccccc2S(=O)(=O)C(C)C)n1 [HG-5-88-01] + COc1cc2c(Oc3ccc(NC(=O)C4(C(=O)Nc5ccc(F)cc5)CC4)cc3F)ccnc2cc1OCCCN1CCOCC1 [Foretinib] (partner 0.25 µM)	0.87
